B1: MNAT1 (parent)
chain: LAPIHKLEEALYEYQPLQIETYGP

Variants of: B1
PROTOCOL_SUMMARY: protein stability index of a GFP-peptide fusion (GPS, HEK-293T) (PSI 1-6); higher = more stable;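 also: lentivirally expressed fusions sorted by FACS into six bins by GFP to DsRed ratio, PSI derived from sequencing read proportions per bin multiplied by bin number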
ASSAY_SETUP: c terminus: a fixed tail appended
criterion met means recorded protein stability index is 2 or above; criterion not met means it is below 2.

Below are worked cases with known answers.
Lookup: Please check the record "E8A" and state if its protein stability index is at or above 2.
Found: criterion not met

Lookup: Please check the record "E13R" and state if its protein stability index is at or above 2.
Found: criterion not met

Lookup: Please check the record "P3C" and state if its protein stability index is at or above 2.
Found: criterion not met

Lookup: Please check the record "L17K" and state if its protein stability index is at or above 2.
Found: criterion met

Lookup: Please check the record "I4K" and state if its protein stability index is at or above 2.
Found: criterion met

Further cases:
Lookup: Please check the record "I19M" and state if its protein stability index is at or above 2.
Found: criterion met

Lookup: Please check the record "K6C" and state if its protein stability index is at or above 2.
Found: criterion not met

Lookup: Please check the record "Y14T" and state if its protein stability index is at or above 2.
Found: criterion met

Lookup: Please check the record "P16M" and state if its protein stability index is at or above 2.
Found: criterion not met

Lookup: Please check the record "L1H" and state if its protein stability index is at or above 2.
Found: criterion not met
